- Tested on: HTT mRNA
- PROTOCOL: RT-qPCR splicing assay, HTT canonical junction (CJ) and alternative junction (AJ) mRNA
- Assay type: cell-based, human
- CONDITION: Homo sapiens, increase in HTT alternative junction (AJ) mRNA, RT-qPCR; read-out: HTT AJ AC50
Give AC50 for every item shown.

State its AC50: Cc1cn2nc(-c3ccc4c(=O)n(C5CCN(C)CC5)cnc4c3)cc(C)c2n1
1000 to 10000 nM

State its AC50: Cc1cn2cc(-c3ncc4c(=O)n([C@H]5CCNC5)ccc4n3)cc(F)c2n1
100 to 1000 nM

State its AC50: Cc1c(O)c(-c2ncc3c(=O)n([C@H]4CC[C@H](N)C4)ccc3n2)cc2cn(C)nc12
100 to 1000 nM

State its AC50: Cc1c(O)c(-c2nc(C)c3c(=O)n([C@@H]4CCNC5(CC5)C4)ccc3n2)cc2cn(C)nc12
100 to 1000 nM

State its AC50: Cn1cc2cc(-c3cc(F)c4c(=O)n(C5CCNCC5)ccc4c3)cc(C#N)c2n1
< 100 nM

State its AC50: Cc1cn2nc(-c3ccc4c(=O)n([C@H]5CCNC6(CC6)C5)ncc4c3)cc(C)c2n1
< 100 nM

State its AC50: Cc1cn2cc(-c3ccc4c(=O)n(C5CCNCC5)ncc4c3)ncc2n1
1000 to 10000 nM

State its AC50: Cc1c(O)c(-c2ncc3c(=O)n(C4CNC4)ccc3n2)cc2cn(C)nc12
> 10000 nM

State its AC50: Cc1cn2cc(-c3cc(F)c4c(=O)n(C5=CCNCC5)cnc4c3)cc(F)c2n1
< 100 nM

State its AC50: CNCCn1ncc2cc(-c3cc(C)c4nc(C)cn4n3)ccc2c1=O
100 to 1000 nM

State its AC50: Cc1cn2cc(-c3cc(O)c4c(=O)n(C5CCNC5)ccc4c3)cc(C#N)c2n1 (stereo not drawn)
> 10000 nM

State its AC50: Cc1cc(-c2cc(F)c3c(=O)n(C4CCNCC4)cnc3c2)cc2cn(C)nc12
< 100 nM

Source listed as patent US20250332173A1.
